# assay comment: Long-term stability in spiked pooled human plasma
# assay conditions: validation standard 2xLLOV
measured metric: Long-term stability, 6 weeks, 4°C, without daylight Accuracy [%] (%)

{"query smiles": "CN(C)C(=O)c1cc2cnc(Nc3ccc(N4CCNCC4)cn3)nc2n1C1CCCC1", "endpoint unit": "%", "endpoint value": 96.4}
{"query smiles": "NC(=O)c1cccc2cn(-c3ccc([C@@H]4CCCNC4)cc3)nc12", "endpoint unit": "%", "endpoint value": 96.1}
{"query smiles": "C#Cc1cccc(Nc2ncnc3cc(OCCOC)c(OCCOC)cc23)c1", "endpoint unit": "%", "endpoint value": 95.9}
{"query smiles": "Cc1nc(Nc2ncc(C(=O)Nc3c(C)cccc3Cl)s2)cc(N2CCN(CCO)CC2)n1", "endpoint unit": "%", "endpoint value": 72.6}
{"query smiles": "CCCS(=O)(=O)Nc1ccc(F)c(C(=O)c2c[nH]c3ncc(-c4ccc(Cl)cc4)cc23)c1F", "endpoint unit": "%", "endpoint value": 86.3}
{"query smiles": "COc1cc2c(Nc3ccc(Br)cc3F)ncnc2cc1OCC1CCN(C)CC1", "endpoint unit": "%", "endpoint value": 92.2}

###

# assay comment: Short-term stability in spiked pooled human plasma (bench-top, 4 °C, 56 °C)
# assay conditions: validation standard ULOV
measured metric: Short-time stability (24h, RT, without daylight) Accuracy [%] (%)

{"query smiles": "CCC1=C[C@@H]2CN(C1)Cc1c([nH]c3ccccc13)[C@@](C(=O)OC)(c1cc3c(cc1OC)N(C)[C@H]1[C@@](O)(C(=O)OC)[C@H](OC(C)=O)[C@]4(CC)C=CCN5CC[C@]31[C@@H]54)C2", "endpoint unit": "%", "endpoint value": 57.4}
{"query smiles": "Cc1[nH]c2ccccc2c1CCNCc1ccc(/C=C/C(=O)NO)cc1", "endpoint unit": "%", "endpoint value": 100.4}
{"query smiles": "CCN(CC)CCNC(=O)c1c(C)[nH]c(/C=C2\\C(=O)Nc3ccc(F)cc32)c1C", "endpoint unit": "%", "endpoint value": 93.8}
{"query smiles": "COc1cc2nccc(Oc3ccc(NC(=O)NC4CC4)c(Cl)c3)c2cc1C(N)=O", "endpoint unit": "%", "endpoint value": 97.9}

###

# assay comment: Autosampler stability of ready for injection samples
# Type: physicochemical, human
# assay conditions: validation standard ULOV
The entries below come with measured Autosampler (72h, 4°C) Accuracy [%] values attached.

{"compound": "CC1(C)CCC(CN2CCN(c3ccc(C(=O)NS(=O)(=O)c4ccc(NCC5CCOCC5)c([N+](=O)[O-])c4)c(Oc4cnc5[nH]ccc5c4)c3)CC2)=C(c2ccc(Cl)cc2)C1", "endpoint unit": "%", "Autosampler (72h, 4°C) Accuracy [%]": 102.7}
{"compound": "COc1cc2nccc(Oc3ccc(NC(=O)NC4CC4)c(Cl)c3)c2cc1C(N)=O", "endpoint unit": "%", "Autosampler (72h, 4°C) Accuracy [%]": 102.7}
{"compound": "CNC(=O)c1ccc(N2C(=S)N(c3cnc(C#N)c(C(F)(F)F)c3)C(=O)C23CCC3)cc1F [Apalutamide]", "endpoint unit": "%", "Autosampler (72h, 4°C) Accuracy [%]": 106.5}
{"compound": "C[C@H]1Oc2cc(cnc2N)-c2c(nn(C)c2C#N)CN(C)C(=O)c2ccc(F)cc21", "endpoint unit": "%", "Autosampler (72h, 4°C) Accuracy [%]": 99.2}
{"compound": "Nc1cccc2c1CN(C1CCC(=O)NC1=O)C2=O (stereo not shown) [Lenalidomide]", "endpoint unit": "%", "Autosampler (72h, 4°C) Accuracy [%]": 98.9}
{"compound": "CNC(=O)c1cc(Oc2ccc(NC(=O)Nc3ccc(Cl)c(C(F)(F)F)c3)c(F)c2)ccn1", "endpoint unit": "%", "Autosampler (72h, 4°C) Accuracy [%]": 99.3}
{"compound": "O=C(c1ccc(F)c(F)c1Nc1ccc(I)cc1F)N1CC(O)([C@@H]2CCCCN2)C1", "endpoint unit": "%", "Autosampler (72h, 4°C) Accuracy [%]": 107.2}
{"compound": "Cc1cn(-c2cc(NC(=O)c3ccc(C)c(Nc4nccc(-c5cccnc5)n4)c3)cc(C(F)(F)F)c2)cn1", "endpoint unit": "%", "Autosampler (72h, 4°C) Accuracy [%]": 102.0}
{"compound": "Cn1cnc2c(F)c(Nc3ccc(Br)cc3F)c(C(=O)NOCCO)cc21", "endpoint unit": "%", "Autosampler (72h, 4°C) Accuracy [%]": 102.4}
{"compound": "CNCc1ccc(-c2[nH]c3cc(F)cc4c3c2CCNC4=O)cc1", "endpoint unit": "%", "Autosampler (72h, 4°C) Accuracy [%]": 102.4}
{"compound": "COC(=O)c1ccc2c(c1)NC(=O)/C2=C(\\Nc1ccc(N(C)C(=O)CN2CCN(C)CC2)cc1)c1ccccc1", "endpoint unit": "%", "Autosampler (72h, 4°C) Accuracy [%]": 101.4}
{"compound": "Cc1ccc(Nc2nccc(N(C)c3ccc4c(C)n(C)nc4c3)n2)cc1S(N)(=O)=O", "endpoint unit": "%", "Autosampler (72h, 4°C) Accuracy [%]": 99.0}
{"compound": "CNC(=O)c1ccccc1Sc1ccc2c(/C=C/c3ccccn3)n[nH]c2c1", "endpoint unit": "%", "Autosampler (72h, 4°C) Accuracy [%]": 99.1}
{"compound": "NC(=O)c1cccc2cn(-c3ccc([C@@H]4CCCNC4)cc3)nc12", "endpoint unit": "%", "Autosampler (72h, 4°C) Accuracy [%]": 100.1}
{"compound": "O=C1CCC(N2C(=O)c3ccccc3C2=O)C(=O)N1 (stereo not shown) [Thalidomide]", "endpoint unit": "%", "Autosampler (72h, 4°C) Accuracy [%]": 97.8}
{"compound": "Cc1nc(Nc2ncc(C(=O)Nc3c(C)cccc3Cl)s2)cc(N2CCN(CCO)CC2)n1", "endpoint unit": "%", "Autosampler (72h, 4°C) Accuracy [%]": 101.0}
{"compound": "CN(C)C/C=C/C(=O)Nc1cc2c(Nc3ccc(F)c(Cl)c3)ncnc2cc1O[C@H]1CCOC1", "endpoint unit": "%", "Autosampler (72h, 4°C) Accuracy [%]": 99.3}
{"compound": "CCCS(=O)(=O)Nc1ccc(F)c(C(=O)c2c[nH]c3ncc(-c4ccc(Cl)cc4)cc23)c1F", "endpoint unit": "%", "Autosampler (72h, 4°C) Accuracy [%]": 99.4}
{"compound": "Nc1cccc2c1C(=O)N(C1CCC(=O)NC1=O)C2=O (stereo not shown) [Pomalidomide]", "endpoint unit": "%", "Autosampler (72h, 4°C) Accuracy [%]": 97.9}
